Test system: hrtAB-driven expression of the xylE reporter gene
Assay: XylE reporter assay (hrtAB promoter-xylE), Newman
Assay type: cell-based, Staphylococcus aureus
Details: level of XylE induction at 0.5 uM of the compound
API: label(entry) gives met if the entry's XylE (0.5) is strictly smaller than 0.08; on equality or larger values it gives not met.

| compound | class |
| --- | --- |
| CCOc1ccc(NC(=O)c2sc3nc(C)nc(N4CCCCC4)c3c2C)cc1 | met |
| O=C(Nc1ccc(-c2csc(Nc3cccc(Cl)c3)n2)cc1)c1ccccc1 | met |
| O=C(/C=C/c1ccc([N+](=O)[O-])s1)Nc1ccc(I)cc1 | not met |
| CCCN1C(=O)/C(=C2/C(=O)N(CC(=O)Nc3ccc(Cl)cc3)c3ccccc32)SC1=S [drawing 67] | met |
| COc1ccc(CCNC(=O)C(=O)Nc2cccc(Cl)c2)cc1OC | not met |
| CC(C)(C)c1cc2c(c(C(C)(C)C)c1)OC(c1cc([N+](=O)[O-])ccc1O)N2 (stereo not shown) | met |
| Brc1ccc2[nH]cc(-c3nc(-c4ccccc4)c(-c4ccccc4)[nH]3)c2c1 | not met |
| Cc1ccc(-c2nc(Nc3ccc4c(c3)OCO4)c3ccccc3n2)cc1 | met |

Problem: Given the entry `Cc1c(-c2ccccc2)nc2ccccc2c1C(=O)Nc1ccccc1C(F)(F)F` , would its reported XylE (0.5) be below 0.08?
Solution: not met

----------
System: hrtAB-driven expression of the xylE reporter gene
Test: XylE reporter assay (hrtAB promoter-xylE), Newman
Format: cell-based, Staphylococcus aureus
Conditions: level of XylE induction at 50.0 uM of the compound
In this section, each of the compounds is paired with its reported XylE (50.0).

Observe how each entry below is paired with its result.
| compound | readout | value measured |
| --- | --- | --- |
| O=C(N/N=C/c1ccc(-c2cccc(C(F)(F)F)c2)o1)C1COc2ccccc2O1 (centres unmarked) [drawing 49] | XylE (50.0) | 0.09 |
| Oc1c(-c2cc(-c3ccco3)[nH]n2)ccc2ccccc12 [drawing 65] | XylE (50.0) | 5 |
| O=c1c2ccccc2nc(/C=C\c2ccccc2F)n1-c1ccccc1F | XylE (50.0) | 0 |
| FC(F)(F)c1cccc(Nc2nc(-c3cccnc3)nc3ccccc23)c1 | XylE (50.0) | 0.02 |
| COc1ccccc1N1C(=O)c2ccc(C(=O)OC(C)C(=O)c3ccc(C)cc3)cc2C1=O (centres unmarked) | XylE (50.0) | 1 |

Problem: Quick one: XylE (50.0) for Cc1cccc(C(=O)Nc2ccc(-c3nc4ccccc4o3)cc2)c1 [drawing 43] ?
Solution: 0.09

Problem: Entry `O=C(Nc1ccncc1)c1ccc(COc2cc(Cl)ccc2Cl)cc1` please
Solution: 1

Problem: Input `COc1ccc(Cl)cc1NC(=O)Nc1ccc(Cl)cc1`
Solution: 0.03

Problem: // next record `Cc1c(NC(=O)c2ccc(Cl)c([N+](=O)[O-])c2)cccc1-c1nc2ccccc2o1`
Solution: 0.5

Problem: Continue with O=C(NC(=S)Nc1ccc(-c2nc3ccccc3s2)cc1)c1ccccc1[N+](=O)[O-] [drawing 23]
Solution: 0.2

Problem: Repeat for the following compound: `c1ccc(-c2ccc(CSc3nc4ccccc4[nH]3)cc2)cc1`
Solution: 11

----------
System: HssRS-dependent hrtAB expression
Assay: Luminescence-based assay to monitor HssRS-dependent hrtAB expression (phrtABlux reporter), Newman
Format: cell-based, Staphylococcus aureus
Details: Staphylococcus aureus, NEWMAN, read-out: % Lumi, luminescence induced by the compound compared to the heme control (82.5 nM) in the same plate; Newman
Could you label it 1.0 if measured activation at 0.0825 µM is 400% or higher, and 0.0 otherwise?

| substance smiles | class |
| --- | --- |
| c1cc(-c2ccc3nsnc3c2)c2cc3nsnc3cc2c1 | 0.0 |
| COc1ccc(-c2cc(-c3ccc(OC)cc3O)n[nH]2)cc1 | 0.0 |
| COc1cccc(-c2cc(C(=O)Nc3ccccc3C(F)(F)F)c3ccccc3n2)c1 | 1.0 |
| COc1ccc(Cl)cc1NC(=O)Nc1ccc(Cl)cc1 | 0.0 |

Problem: Hello, I need to know if `Oc1ccccc1-c1nc(NC2CCCC2)c2ccccc2n1` has measured activation at 0.0825 µM not below 400%. Thanks!
Solution: 1.0
